Every entry's value here was drawn from patent US8026218.

- system: T1, human NK1 receptor (human, UniProt P25103 1-407)
- T1 construct: whole, on cells; Used as membrane preparations of transfected CHO cells; also called hNK1; human neurokinin-1 receptor
- T1 sequence (P25103 whole entry): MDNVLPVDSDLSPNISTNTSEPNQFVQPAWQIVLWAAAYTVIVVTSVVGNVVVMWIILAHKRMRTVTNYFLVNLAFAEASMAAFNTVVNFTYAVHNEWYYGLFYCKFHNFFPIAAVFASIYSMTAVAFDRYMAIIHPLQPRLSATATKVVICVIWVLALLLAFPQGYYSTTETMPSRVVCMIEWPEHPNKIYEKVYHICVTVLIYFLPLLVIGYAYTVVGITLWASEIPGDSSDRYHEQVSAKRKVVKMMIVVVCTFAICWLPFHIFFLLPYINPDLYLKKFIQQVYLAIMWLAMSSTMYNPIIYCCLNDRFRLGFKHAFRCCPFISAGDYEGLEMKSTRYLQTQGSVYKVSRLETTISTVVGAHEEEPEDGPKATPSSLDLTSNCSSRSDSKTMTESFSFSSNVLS
- protocolNotes: radioligand competition vs [3H]substance P, membranes of hNK1 CHO cells
Bridge positions count the residues as written; N and C are the ends. Square brackets hold non-standard residues; d marks the D form. Primed or numbered codes have the meaning given here. Ends that are not written are not given here. * marks the point of attachment. NHBn(CF3)2 = C-terminal amide NH-Bn(CF3)2, a benzyl group carrying two CF3; Glc = O-glucosyl on Ser side chain (Ser(OGlu)/Ser(OGlc)); NH(3,5-(CF3)2-benzyl) = FC(F)(F)c1cc(CN*)cc(C(F)(F)F)c1; NMeBn(3,5-(CF3)2) = CN(Cc1cc(C(F)(F)F)cc(C(F)(F)F)c1)*; OBzl(3,5-(CF3)2) = FC(F)(F)c1cc(CO*)cc(C(F)(F)F)c1; Glc″ = glucosyl on the serine side-chain oxygen; NH‑Bn(CF3)2 = C-terminal Bn(CF3)2 amide; Dmt = Cc1cc(O)cc(C)c1C[C@H](N)C(=O)O; Nle = CCCC[C@H](N)C(=O)O
Binarize Ki at 0.1 nM; below is 1, at or above is -1.

Solved cases (5 shown):
| binder | groupLabel |
| --- | --- |
| YAGFXPLW (not fully specified; Dmt at 1; D-Ala at 2; Nle at 5 (X); C-terminal NH-Bn-2,4-(OMe)2 amide) [DmtDAlaGlyPheNleProLeuTrpNHBn-2,4-(OMe)2 (TY054)] | -1 |
| Y[dA]GF[Nle]S(Glc″)LW-{NH‑Bn(CF3)2} [TyrDAlaGlyPheNleSer(OGlu)LeuTrpNHBn(CF3)2 (TY044)] | -1 |
| YXGFXPLW (D-Pen at 2 and 5 (X); disulfide 2-5 (cyclic); C-terminal NH-Bn(CF3)2 amide) [Tyr[DPenGlyPheDPen]ProLeuTrpNHBn(CF3)2 (TY049)] | -1 |
| [Dmt][dA]GFMPLW-{OBzl(3,5-(CF3)2)} [DmtDAlaGlyPheMetProLeuTrpOBn(CF3)2 (TY033)] | -1 |
| YAGFXPLW (Dmt at 1; D-Ala at 2; Nle at 5 (X); C-terminal NH-Bn-3-(CF3) amide) [DmtDAlaGlyPheNleProLeuTrpNHBn-3-(CF3) (TY053)] | -1 |

Confirm or reject: Ki of Y[dA]GFFPLW-{OBzl(3,5-(CF3)2)} [TyrDAlaGlyPhePheProLeuTrpOBn(CF3)2 (TY003)] lies strictly below 0.1 nM 1

Can you handle [Dmt][dA]GFMPLW-{NH(3,5-(CF3)2-benzyl)} [DmtDAlaGlyPheMetProLeuTrpNHBn(CF3)2 (TY032)] next? 1

Can you handle Y[dA]GF[Nle]PLS(Glc)W-{NH‑Bn(CF3)2} [TyrDAlaGlyPheNleProLeuSer(OGlu)TrpNHBn(CF3)2 (TY055)] next? 1

Can you handle MPLW-{NHBn(CF3)2} [MetProLeuTrpNHBn(CF3)2 (TY051)] next? -1

Can you handle YAGFXPLW (D-Ala at 2; Nle (norleucine) at 5 (X); C-terminal O-3,5-Bn(CF3)2 ester) [TyrDAlaGlyPheNleProLeuTrpOBn(CF3)2 (TY018)] next? -1

Can you handle Y[dA]GFPLW-{NH(3,5-(CF3)2-benzyl)} [TyrDAlaGlyPheProLeuTrpNHBn(CF3)2 (TY012)] next? -1

Can you handle Y[dC]GF[Nle]PCW-{NH(3,5-(CF3)2-benzyl)} (disulfide 2-7, also called [D-Cys2, Cys7]TY027) [Tyr[DCysGlyPheNleProCys]TrpNHBn(CF3)2 (TY035)] next? 1

Can you handle Y[dA]GFFPLW-{NMeBn(3,5-(CF3)2)} [TyrDAlaGlyPhePheProLeuTrpNMeBn(CF3)2 (TY017)] next? -1

Can you handle Y[dA]GFPLW-{OBzl(3,5-(CF3)2)} [TyrDAlaGlyPheProLeuTrpOBn(CF3)2 (TY001)] next? 1

Can you handle Y[dC]GFMPLW-{OBzl(3,5-(CF3)2)} [TyrDCysGlyPheMetProLeuTrpOBn(CF3)2 (TY031)] next? -1

Can you handle YXGFXPLW (D-Pen (D-penicillamine) at 2 (X); Pen (L-penicillamine) at 5 (X); disulfide 2-5 (cyclic); C-terminal NH-Bn(CF3)2 amide) [Tyr[DPenGlyPhePen]ProLeuTrpNHBn(CF3)2 (TY046)] next? 1
